Hey, just so you know, these numbers are from PubChem BioAssay (NCI).

- Tested on: DU-145 prostate
- ASSAY_INFO: NCI tumour cell line growth inhibition, 48 h
Give TGI for every item shown.

The measured TGI associated with `CC(C)(C)n1nc(C2CC2)cc1NC(=O)Nc1ccc(Cl)cc1` reads > 100 µM

Quick note, TGI for `COc1ccc2c(c1)C(=O)c1c-2n(CCCCl)c(=O)c2cc([N+](=O)[O-])ccc12` landed at > 100 µM

// field: TGI; key: `CSc1ccc(/C=C/C(=O)c2nc3ccccc3[nH]2)cc1` ; value = 13.2 µM

TGI measured on `O=C1C(=Cc2cccc(Cl)c2)N=C(c2ccccc2)N1n1c(-c2ccccc2)nc2ccccc2c1=O` = > 100 µM

Memo: CC(C)C(C)C(O)C(O)C(C)C1CCC2C3COC(=O)C4CC(O)C(O)CC4(C)C3CCC12C (stereo not given) , reported TGI: > 100 µM

compound `COc1ccc2c(c1)O/C(=C\c1ccc([N+](=O)[O-])o1)C2=O` , TGI observed: 7.94 µM

Documented TGI of `COc1ccc(Nc2[nH]n(C3=Nc4ccccc4Sc4ccccc43)c(=O)c2C#N)cc1` : 61.5 µM

Entry under test: `O=C(/C=C/c1ccccc1)Nc1ncc(Cc2ccccc2)s1` . Its TGI was > 100 µM

// TGI value for `NNC(=O)CC(=O)Nc1ccccc1Cl` : > 100 µM

Per the records, this compound ( CC1(C)CCCC2(C)C3=C(CCC12)C(=O)OC3 (stereo not given) ) has TGI equal to > 100 µM
